TESTED_TARGET: T1, human TREM2 (triggering receptor expressed on myeloid cells 2) (human) (UniProt Q9NZC2)
T1 sequence (looked up): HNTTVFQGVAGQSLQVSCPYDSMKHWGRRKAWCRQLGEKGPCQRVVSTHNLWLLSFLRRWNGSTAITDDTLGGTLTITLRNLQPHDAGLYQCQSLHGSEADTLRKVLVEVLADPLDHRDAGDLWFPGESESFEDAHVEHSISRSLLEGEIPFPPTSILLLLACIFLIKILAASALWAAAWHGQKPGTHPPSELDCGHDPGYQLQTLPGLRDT
ASSAY_METHOD_TEXT: 2nd screen, 100 nM Ab
MEASURED_ENDPOINT: Binding Signal (fold over 6E7 parental antibody) (fold)
Respond numerically; units are fold and should not be typed.

Example cases with answers are listed next.
6E7 antibody affinity modulation variant V32 (antibody, V domains shown) VH: EVQLVQSGAEVKKPGESLKISCKGSGYSFTSYWIAWVRQMPGKGLEWMGIIYPGDSDTRYSNSFQGQVTISADKSISTAYLQWSSLKASDTAMYFCARQRTFYYDSSDYFDYWGQGTLVTVSS VL: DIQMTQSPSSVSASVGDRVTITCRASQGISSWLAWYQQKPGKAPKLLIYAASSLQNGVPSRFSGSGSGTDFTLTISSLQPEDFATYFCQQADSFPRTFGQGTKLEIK : 0.89
6E7 antibody affinity modulation variant V20 (antibody, V domains shown) VH: EVQLVQSGAEVKKPGESLKISCKGSGYSFTSYWIAWVRQMPGKGLEWMGRIYPGDSDTRYSPSFQGQVTISADKSISTAYLQWSSLKASDTAMYFCARQRTFYYDSSDYFDYWGQGTLVTVSS VL: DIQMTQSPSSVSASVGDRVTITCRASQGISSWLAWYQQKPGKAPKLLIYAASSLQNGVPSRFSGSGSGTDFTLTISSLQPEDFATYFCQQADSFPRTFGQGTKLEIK : 0.52

Proceed to the following item.
Request: Recorded Binding Signal (fold over 6E7 parental antibody) for 6E7 antibody affinity modulation variant V59 (antibody, V domains shown) VH: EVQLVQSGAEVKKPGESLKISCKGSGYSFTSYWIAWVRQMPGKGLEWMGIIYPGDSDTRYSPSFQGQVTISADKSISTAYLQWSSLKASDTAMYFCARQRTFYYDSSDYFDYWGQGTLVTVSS VL: DIQMTQSPSSVSASVGDRVTITCRASQGISSWLAWYQQKPGKAPKLLIYAASSLQNGVPSRFSGSGSGTDFTLTISSLQPEDFATYFCMQADSFPRTFGQGTKLEIK , please?
Result: 0.6

# credit: patent US20250019437A1
